Test system: ACHN
Conditions: read-out: LC50; ACHN (Renal Cancer), 48 hours, SRB
readout: CC50 (µM)
Just the number in µM, nothing appended.

| compound | CC50 (µM) |
| --- | --- |
| CC1(C)C=Cc2c(ccc3c4c(n(O)c23)C(C)(C)C2CC35CCCN3C(=O)C2(NC5=O)C4SCC(NC(=O)CCC(N)C(=O)O)C(=O)NCC(=O)O)O1 (centres unmarked) | 12.3 |

Short answer for CN(C)c1cccc2c(S(=O)(=O)NCCCCCCCCCCOc3ccc4c(c3)[N+]([O-])=C3C4=C[C@@]45NC(=O)C6(CCCN6C4=O)CC5C3(C)C)cccc12 (some centres unmarked) : CC50 was 8.56

###

Listed next: entries and their corresponding CC50.
Test system: T-47D
Settings: read-out: LC50; T-47D (Breast Cancer), 48 hours, SRB
Just the number in µM, nothing appended.

| compound | tested-on | CC50 (µM) |
| --- | --- | --- |
| CN(C)c1cccc2c(S(=O)(=O)NCCCCCCCCCCOc3ccc4c(c3)[N+]([O-])=C3C4=C[C@@]45NC(=O)C6(CCCN6C4=O)CC5C3(C)C)cccc12 (some centres unmarked) [Dansyl Analogue] | T-47D | 3.14 |

Now look at this entry.
Short answer for CC1(C)C=Cc2c(ccc3c4c(n(O)c23)C(C)(C)C2CC35CCCN3C(=O)C2(NC5=O)C4SCC(NC(=O)CCC(N)C(=O)O)C(=O)NCC(=O)O)O1 (centres unmarked) [Glutathione Adduct] : CC50 was 46

###

System: MDA-MB-468
Conditions: read-out: LC50; MDA-MB-468 (Breast Cancer), 48 hours, SRB
readout: CC50 (nM)
Just the number in nM, nothing appended.

Short answer for CN(C)c1cccc2c(S(=O)(=O)NCCCCCCCCCCOc3ccc4c(c3)[N+]([O-])=C3C4=C[C@@]45NC(=O)C6(CCCN6C4=O)CC5C3(C)C)cccc12 (stereo partly shown) [Dansyl Analogue] : CC50 was 941

###

Listed next: entries and their corresponding CC50.
Tested on: EKVX
Details: read-out: LC50; EKVX (Non-Small Cell Lung Cancer), 48 hours, SRB
Just the number in µM, nothing appended.

| compound | CC50 / µM |
| --- | --- |
| CN(C)c1cccc2c(S(=O)(=O)NCCCCCCCCCCOc3ccc4c(c3)[N+]([O-])=C3C4=C[C@@]45NC(=O)C6(CCCN6C4=O)CC5C3(C)C)cccc12 (some centres unmarked) | 37 |

Now look at this entry.
Short answer for CC1(C)C=Cc2c(ccc3c4c(n(O)c23)C(C)(C)C2CC35CCCN3C(=O)C2(NC5=O)C4SCC(NC(=O)CCC(N)C(=O)O)C(=O)NCC(=O)O)O1 (centres unmarked) : CC50 was 18.9

###

Test system: SK-MEL-28
Conditions: read-out: LC50; SK-MEL-28 (Melanoma), 48 hours, SRB
readout: CC50 (µM)
Just the number in µM, nothing appended.

Short answer on SK-MEL-28 for CC1(C)C=Cc2c(ccc3c4c(n(O)c23)C(C)(C)C2CC35CCCN3C(=O)C2(NC5=O)C4SCC(NC(=O)CCC(N)C(=O)O)C(=O)NCC(=O)O)O1 (stereo not shown) [Glutathione Adduct] , CC50: 3.87

###

Listed next: entries and their corresponding TGI.
Test system: ACHN
Conditions: ACHN (Renal Cancer), 48 hours, SRB
Just the number in µM, nothing appended.

| compound | tested-on | TGI, µM |
| --- | --- | --- |
| Cc1cc(C)cc(-c2ccc3c(c2)[N+]([O-])=C2C3=C[C@@]34NC(=O)C5(CCCN5C3=O)CC4C2(C)C)c1 (stereo partly shown) | ACHN | 0.618 |
| CN(C)c1cccc2c(S(=O)(=O)NCCCCCCCCCCOc3ccc4c(c3)[N+]([O-])=C3C4=C[C@@]45NC(=O)C6(CCCN6C4=O)CC5C3(C)C)cccc12 (stereo partly shown) | ACHN | 2.7 |
| CC1(C)C=Cc2c(ccc3c4c(n(O)c23)C(C)(C)C2CC35CCCN3C(=O)C2(NC5=O)C4SCC(NC(=O)CCC(N)C(=O)O)C(=O)NCC(=O)O)O1 (stereo not shown) | ACHN | 3.22 |

Short answer for [2H]On1c2c(c3ccc4c(c31)C=CC(C)(C)O4)C(OC([2H])([2H])[2H])[C@@]13NC(=O)C4(CCCN4C1=O)CC3C2(C)C (stereo partly shown) : TGI was 2.53

###

Listed next: entries and their corresponding CC50.
System: SF-268
Conditions: read-out: LC50; SF-268 (CNS Cancer), 48 hours, SRB
Just the number in µM, nothing appended.

| compound | CC50, µM |
| --- | --- |
| CC1(C)C=Cc2c(ccc3c4c(n(O)c23)C(C)(C)C2CC35CCCN3C(=O)C2(NC5=O)C4SCC(NC(=O)CCC(N)C(=O)O)C(=O)NCC(=O)O)O1 (centres unmarked) [Glutathione Adduct] | 10.9 |

Now look at this entry.
Short answer for CN(C)c1cccc2c(S(=O)(=O)NCCCCCCCCCCOc3ccc4c(c3)[N+]([O-])=C3C4=C[C@@]45NC(=O)C6(CCCN6C4=O)CC5C3(C)C)cccc12 (some centres unmarked) [Dansyl Analogue] : CC50 was 3.69

###

System: OVCAR-4
Settings: read-out: LC50; OVCAR-4 (Ovarian Cancer), 48 hours, SRB
Listed next: entries and their corresponding CC50.
# do not omit the unit; it follows the number

Short answer for CC1(C)C=Cc2c(ccc3c4c(n(O)c23)C(C)(C)C2CC35CCCN3C(=O)C2(NC5=O)C4SCC(NC(=O)CCC(N)C(=O)O)C(=O)NCC(=O)O)O1 (centres unmarked) : CC50 was 10.1 µM

Short answer for CN(C)c1cccc2c(S(=O)(=O)NCCCCCCCCCCOc3ccc4c(c3)[N+]([O-])=C3C4=C[C@@]45NC(=O)C6(CCCN6C4=O)CC5C3(C)C)cccc12 (some centres unmarked) : CC50 was 32.2 µM

###

System: HOP-62
Details: HOP-62 (Non-Small Cell Lung Cancer), 48 hours, SRB
readout: TGI (µM)
Just the number in µM, nothing appended.

# count of solved cases: 3
| compound | readout | value |
| --- | --- | --- |
| Cc1cc(C)cc(-c2ccc3c(c2)[N+]([O-])=C2C3=C[C@@]34NC(=O)C5(CCCN5C3=O)CC4C2(C)C)c1 (stereo partly shown) | TGI | 3.32 |
| CC1(C)C=Cc2c(ccc3c4c(n(O)c23)C(C)(C)C2CC35CCCN3C(=O)C2(NC5=O)C4SCC(NC(=O)CCC(N)C(=O)O)C(=O)NCC(=O)O)O1 (stereo not shown) | TGI | 1.38 |
| [2H]On1c2c(c3ccc4c(c31)C=CC(C)(C)O4)C(OC([2H])([2H])[2H])[C@@]13NC(=O)C4(CCCN4C1=O)CC3C2(C)C (stereo partly shown) | TGI | 7.03 |

Short answer for CN(C)c1cccc2c(S(=O)(=O)NCCCCCCCCCCOc3ccc4c(c3)[N+]([O-])=C3C4=C[C@@]45NC(=O)C6(CCCN6C4=O)CC5C3(C)C)cccc12 (stereo partly shown) : TGI was 4.64

###

Tested on: U251
Settings: U251 (CNS Cancer), 48 hours, SRB
readout: TGI (µM)
Just the number in µM, nothing appended.

| molecule | value-unit | value |
| --- | --- | --- |
| CN(C)c1cccc2c(S(=O)(=O)NCCCCCCCCCCOc3ccc4c(c3)[N+]([O-])=C3C4=C[C@@]45NC(=O)C6(CCCN6C4=O)CC5C3(C)C)cccc12 (stereo partly shown) | µM | 0.334 |
| [2H]On1c2c(c3ccc4c(c31)C=CC(C)(C)O4)C(OC([2H])([2H])[2H])[C@@]13NC(=O)C4(CCCN4C1=O)CC3C2(C)C (stereo partly shown) | µM | 1.37 |
| Cc1cc(C)cc(-c2ccc3c(c2)[N+]([O-])=C2C3=C[C@@]34NC(=O)C5(CCCN5C3=O)CC4C2(C)C)c1 (stereo partly shown) | µM | 0.273 |

Short answer for CC1(C)C=Cc2c(ccc3c4c(n(O)c23)C(C)(C)C2CC35CCCN3C(=O)C2(NC5=O)C4SCC(NC(=O)CCC(N)C(=O)O)C(=O)NCC(=O)O)O1 (stereo not shown) : TGI was 1.97

###

Tested on: MDA-MB-435
Settings: read-out: LC50; MDA-MB-435 (Breast Cancer), 48 hours, SRB
Listed next: entries and their corresponding CC50.
Just the number in µM, nothing appended.

| molecule | tested-on | CC50 / µM |
| --- | --- | --- |
| CC1(C)C=Cc2c(ccc3c4c(n(O)c23)C(C)(C)C2CC35CCCN3C(=O)C2(NC5=O)C4SCC(NC(=O)CCC(N)C(=O)O)C(=O)NCC(=O)O)O1 (centres unmarked) | MDA-MB-435 | 22 |

Now look at this entry.
Short answer on MDA-MB-435 for CN(C)c1cccc2c(S(=O)(=O)NCCCCCCCCCCOc3ccc4c(c3)[N+]([O-])=C3C4=C[C@@]45NC(=O)C6(CCCN6C4=O)CC5C3(C)C)cccc12 (some centres unmarked) , CC50: 23.1

Measured values drawn from patent US20110105515A1 for this set.
